Entries and their measured inhibition follow.
Target: CDK3/Cyclin E (Homo sapiens) (UniProt P24864+Q00526);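 further: each figure is a mean percent inhibition of the CDK3/cyclin E complex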
Sequence (P24864 whole entry, looked up): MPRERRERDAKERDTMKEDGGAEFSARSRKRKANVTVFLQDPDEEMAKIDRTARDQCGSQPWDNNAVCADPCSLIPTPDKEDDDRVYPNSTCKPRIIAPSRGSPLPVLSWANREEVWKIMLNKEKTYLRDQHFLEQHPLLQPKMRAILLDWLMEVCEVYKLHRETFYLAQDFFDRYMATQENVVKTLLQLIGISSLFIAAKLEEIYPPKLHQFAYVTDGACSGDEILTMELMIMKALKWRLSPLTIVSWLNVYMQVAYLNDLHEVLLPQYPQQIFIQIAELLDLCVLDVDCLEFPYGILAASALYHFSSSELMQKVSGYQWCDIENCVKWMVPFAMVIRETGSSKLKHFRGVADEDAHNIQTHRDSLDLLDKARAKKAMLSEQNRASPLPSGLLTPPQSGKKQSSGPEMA
Sequence (Q00526 whole entry, looked up): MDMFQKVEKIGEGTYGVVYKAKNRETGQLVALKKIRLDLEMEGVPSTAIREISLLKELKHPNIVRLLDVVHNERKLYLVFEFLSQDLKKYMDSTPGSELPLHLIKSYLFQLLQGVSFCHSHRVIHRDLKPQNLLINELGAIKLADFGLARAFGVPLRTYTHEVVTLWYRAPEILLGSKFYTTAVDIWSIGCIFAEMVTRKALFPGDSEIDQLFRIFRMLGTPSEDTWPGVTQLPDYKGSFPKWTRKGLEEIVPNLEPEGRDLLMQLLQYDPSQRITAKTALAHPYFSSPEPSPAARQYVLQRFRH
Details: at 1 µM
Report the value in % with no unit label.

Below: 5 molecules and their reported inhibition.
Molecule: FC(F)(F)c1cccc(-c2nn3ncccc3c2-c2ccnc(Nc3ccc4c(c3)OCCO4)n2)c1
inhibition (%): -0.03
//
Molecule: NC(=O)c1sc(-n2cnc3ccc(C(F)(F)F)cc32)cc1OCc1ccccc1Br
inhibition (%): -2.34
//
Molecule: COC(=O)Nc1nc2ccc(Oc3ccc(NC(=O)Nc4cccc(Cl)c4)cc3)cc2[nH]1
inhibition (%): -0.43
//
Molecule: CCCN1CCC(c2ccc(Nc3nc(Nc4cc(F)ccc4C(N)=O)c4cc[nH]c4n3)c(OC)c2)CC1
inhibition (%): -1.93
//
Molecule: CCNC(=O)O[C@H]1CN[C@H](C#Cc2cc3ncnc(Nc4ccc(OCc5cccc(F)c5)c(Cl)c4)c3s2)C1
inhibition (%): 0.27

QUERY: Please report the recorded inhibition for `c1cc(-c2cnn3nc(N4CCOCC4)ccc23)nc(NC2CC2)n1` .
RESULT: 17.4

QUERY: Please report the recorded inhibition for `CC(C)(CO)CNC(=O)c1ccc2c(c1)/C(=N/Nc1ccc(S(N)(=O)=O)cc1)C(=O)N2` .
RESULT: 88.5
